- Experimental target: human TASK-3 (Homo sapiens, UniProt Q9NPC2)
- Sequence (Q9NPC2 whole entry): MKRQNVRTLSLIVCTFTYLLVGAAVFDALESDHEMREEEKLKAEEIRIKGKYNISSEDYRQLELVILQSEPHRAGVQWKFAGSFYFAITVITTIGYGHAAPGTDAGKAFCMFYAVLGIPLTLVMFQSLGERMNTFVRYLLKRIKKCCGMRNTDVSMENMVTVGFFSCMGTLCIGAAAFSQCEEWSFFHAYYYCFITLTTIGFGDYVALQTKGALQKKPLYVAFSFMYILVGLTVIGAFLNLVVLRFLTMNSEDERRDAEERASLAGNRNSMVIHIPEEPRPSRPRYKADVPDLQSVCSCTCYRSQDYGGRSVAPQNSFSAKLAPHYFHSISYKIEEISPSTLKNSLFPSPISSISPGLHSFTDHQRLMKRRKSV
- Assay remarks: Inhibition of recombinant TASK-3 in stably transfected CHO cells, KCl-induced depolarization, voltage-sensitive dye (B-2)
- Format: cell-based
- Parameters: expressed in transfected cells; host or cells: stably transfected CHO cells
- Settings: depolarization induced by 40 mM potassium chloride, some mean values from multiple determinations
Value type: IC50 (nM)

> print(dat)
                                    compound  value.type  obs.value
 1  O=C(c1ccccc1F)N1C2CCC1CN(Cc1c(-c3ccc(Cl)cn3)nc3ccccn13)C2        IC50         25
 2  O=C(c1ccncc1)N1CC2CCC1CN2Cc1c(-c2ccc(Cl)cc2)nc2ccccn12 (single isomer, unassigned)        IC50        320
 3  COc1ccc(F)cc1C(=O)N1CC2CCC(C1)N2Cc1c(-c2ccc(Cl)cc2)nc2ccccn12        IC50        220
 4  O=C(c1cccc(OC(F)F)n1)N1CC2CCC1CN2Cc1c(-c2ccc(Cl)cn2)nc2ccccn12 (single isomer, unassigned; enantiomer 1)        IC50         75
 5  Cc1ccccc1C(=O)N1CC2CCC1CN2Cc1c(-c2ccc(Cl)cc2)nc2ccccn12 (single isomer, unassigned)        IC50          5
 6  O=C(N1CCCCC1)N1C2CCC1CN(Cc1c(-c3ccc(Cl)cc3)nc3ccccn13)C2        IC50        2.9
 7  Cc1ccc(NC(=O)N2C3CCC2CN(Cc2c(-c4ccc(Cl)cc4)nc4ccccn24)C3)c(C)c1        IC50        350
 8  CCc1cccc(C)c1NC(=O)N1C2CCC1CN(Cc1c(-c3ccc(Cl)cc3)nc3ccccn13)C2        IC50         13
 9  O=C(C1CCC1)N1C2CC1CN(Cc1c(-c3ccc(Cl)cc3)nc3ccccn13)C2        IC50       2800
10  CC(C)(C)OC(=O)N1CC2CCC1CN2Cc1c(-c2ccc(Cl)cc2)nc2ccccn12 (single isomer, unassigned) [Example 16]        IC50        600
11  O=C(Nc1c(F)cccc1F)N1C2CCC1CN(Cc1c(-c3ccc(Cl)cc3)nc3ccccn13)C2        IC50         44

###

- Experimental target: human TASK-1 (Homo sapiens)
- Sequence (O14649 whole entry): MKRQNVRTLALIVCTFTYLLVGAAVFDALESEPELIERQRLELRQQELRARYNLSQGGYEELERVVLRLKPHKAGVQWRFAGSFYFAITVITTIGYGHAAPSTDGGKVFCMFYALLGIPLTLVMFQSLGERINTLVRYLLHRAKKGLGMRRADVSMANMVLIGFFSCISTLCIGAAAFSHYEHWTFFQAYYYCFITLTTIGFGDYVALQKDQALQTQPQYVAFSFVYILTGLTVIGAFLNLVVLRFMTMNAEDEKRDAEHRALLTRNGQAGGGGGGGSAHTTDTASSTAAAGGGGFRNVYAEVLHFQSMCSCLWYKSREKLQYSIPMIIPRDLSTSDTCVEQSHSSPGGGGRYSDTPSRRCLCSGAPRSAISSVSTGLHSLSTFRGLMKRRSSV
- Assay remarks: Inhibition of recombinant TASK-1 in stably transfected CHO cells, KCl-induced depolarization, voltage-sensitive dye (B-2)
- Type: cell-based
- Parameters: expressed in transfected cells; host or cells: stably transfected CHO cells
- Settings: depolarization induced by 40 mM potassium chloride, some mean values from multiple determinations
pIC50: −log10 of the molar value.
Value type: pIC50

> print(dat)
                                    molecule  value.type  obs.value
 1  O=C(C1CCCC1)N1CC2CCC(C1)N2Cc1c(-c2ccc(Cl)cc2)nc2ccccn12       pIC50       6.48
 2  COc1ccc(Cl)c(C(=O)N2CC3CCC2CN3Cc2c(-c3ccc(Cl)cn3)nc3ccccn23)n1 (single isomer, unassigned; enantiomer 1) [Example 25]       pIC50       6.92
 3  O=C(c1ccccc1F)N1CC2CCC(C1)N2Cc1c(-c2ccc(Br)cc2)nc2ccccn12       pIC50       6.64
 4  CC(C)(C)OC(=O)N1CC2CCC(C1)N2Cc1c(-c2ccc(Br)cc2)nc2ccccn12       pIC50       6.70
 5  O=C(c1cccc(OC2CCC2)n1)N1C2COCC1CN(Cc1c(-c3ccc(Cl)cc3)nc3ccccn13)C2       pIC50       6.51
 6  CC(C)NC(=O)N1C2COCC1CN(Cc1c(-c3ccc(Cl)cc3)nc3ccccn13)C2       pIC50       5.85
 7  CCN(C(=O)N1C2CCC1CN(Cc1c(-c3ccc(Cl)cc3)nc3ccccn13)C2)c1ccc(C)cc1       pIC50       5.39
 8  COc1cccc(C(=O)N2CC3CCC(C2)N3Cc2c(-c3ccc(Br)cc3)nc3ccccn23)c1       pIC50       5.96
 9  CN(C)C(=O)N1C2CCC1CN(Cc1c(-c3ccc(Cl)cc3)nc3ccccn13)C2       pIC50       6.66
10  O=C(C1CCC1)N1CC2CCC1CN2Cc1c(-c2ccc(Cl)cc2)nc2ccccn12 (single isomer, unassigned)       pIC50       6.49
11  CC(C)N(C(=O)N1C2COCC1CN(Cc1c(-c3ccc(Cl)cc3)nc3ccccn13)C2)C(C)C       pIC50       6.77

###

- Experimental target: human TASK-3 (Homo sapiens)
- Assay remarks: Inhibition of recombinant TASK-3 in stably transfected CHO cells, KCl-induced depolarization, voltage-sensitive dye (B-2)
- Format: cell-based
- Parameters: expressed in transfected cells; host or cells: stably transfected CHO cells
- Settings: depolarization induced by 40 mM potassium chloride, some mean values from multiple determinations
pIC50: −log10 of the molar value.
Measured pIC50 accompanies every entry in the list below.
Value type: pIC50

> print(dat)
                                   compound  obs.value
1  COc1ccc(C)c(C(=O)N2CC3CCC(C2)N3Cc2c(-c3ccc(Cl)cc3)nc3ccccn23)n1       7.85
2  O=C(c1cccc(OC(F)(F)F)n1)N1C2COCC1CN(Cc1c(-c3ccc(Cl)cc3)nc3ccccn13)C2       7.82
3  CC(C)(C)OC(=O)N1CC2CCC(C1)N2Cc1c(-c2ccc(Br)cc2)nc2ccccn12       6.82
4  O=C(C1CCC1)N1C2CCC1CN(Cc1c(-c3ccc(Cl)cc3)nc3ccccn13)C2       8.14
5  COc1ccc(F)cc1C(=O)N1CC2CCC1CN2Cc1c(-c2ccc(Cl)cc2)nc2ccccn12 (single isomer, unassigned)       7.89
6  Cn1ccnc1C(=O)N1CC2CCC1CN2Cc1c(-c2ccc(Cl)cc2)nc2ccccn12 (single isomer, unassigned)       8.00
7  Cc1ccc(C)c(NC(=O)N2C3CCC2CN(Cc2c(-c4ccc(Cl)cc4)nc4ccccn24)C3)c1       6.80
8  Cc1ccccc1C(=O)N1C2CCC1CN(Cc1c(-c3ccc(Cl)cc3)nc3ccccn13)C2       7.77
